# Tested On: T1, GABARAPL2 (human, UniProt P60520 1-117, limits assumed)
# T1 construct: also called GATE-16
# T1 sequence (P60520 whole entry): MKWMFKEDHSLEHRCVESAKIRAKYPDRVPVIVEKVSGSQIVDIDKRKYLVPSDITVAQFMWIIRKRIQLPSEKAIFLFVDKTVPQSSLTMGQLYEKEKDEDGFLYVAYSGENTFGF
# Experimental Protocol: competition-based ITC (asterisk; legend paragraph 51)
Measured Endpoint: pKd
Reminder that pKd means the negative base-10 logarithm of the concentration expressed in mol/L.

Value of measured pKd for the entry VEEEWVIVSDEEIEEARQKAPLEITEY [AnkB LIR (AnkB WT peptide, human 440 kD AnkB residues 1588-1614)] : 9.68
